Where these numbers come from: patent US11964956B2

- tested-system: hCB2 (Homo sapiens)
- method-notes: cAMP assay, hCB2
pEC50: −log10 of the molar value.
Quick rule for you: pEC50 at 9 or higher means fulfilled, lower means not fulfilled.

CCCOC(=O)CC(C)(C)c1cc(O)c2c(c1)OC(C)(C)[C@@H]1CCC(=O)C[C@@H]21
fulfilled
CC(C)(C(=O)OCCCN=[N+]=[N-])c1cc(O)c2c(c1)OC(C)(C)[C@@H]1CCC(=O)C[C@@H]21
not fulfilled
CCCCCOC(=O)C(C)(C)c1cc(O)c2c(c1)OC(C)(C)[C@@H]1CCC(=O)C[C@@H]21 [Compound 34c]
not fulfilled
CC(C)(C(=O)OCCCC#N)c1cc(O)c2c(c1)OC(C)(C)[C@@H]1CCC(=O)C[C@@H]21
fulfilled

Ask | Is it the case that CCCCSC(=O)C(C)(C)c1cc(O)c2c(c1)OC(C)(C)[C@@H]1CCC(=O)C[C@@H]21 [Compound 34h] has pEC50 reaching or exceeding 9?
Reply | not fulfilled

----------
- tested-system: rCB1 (Rattus norvegicus)
- Sequence (P20272 whole entry): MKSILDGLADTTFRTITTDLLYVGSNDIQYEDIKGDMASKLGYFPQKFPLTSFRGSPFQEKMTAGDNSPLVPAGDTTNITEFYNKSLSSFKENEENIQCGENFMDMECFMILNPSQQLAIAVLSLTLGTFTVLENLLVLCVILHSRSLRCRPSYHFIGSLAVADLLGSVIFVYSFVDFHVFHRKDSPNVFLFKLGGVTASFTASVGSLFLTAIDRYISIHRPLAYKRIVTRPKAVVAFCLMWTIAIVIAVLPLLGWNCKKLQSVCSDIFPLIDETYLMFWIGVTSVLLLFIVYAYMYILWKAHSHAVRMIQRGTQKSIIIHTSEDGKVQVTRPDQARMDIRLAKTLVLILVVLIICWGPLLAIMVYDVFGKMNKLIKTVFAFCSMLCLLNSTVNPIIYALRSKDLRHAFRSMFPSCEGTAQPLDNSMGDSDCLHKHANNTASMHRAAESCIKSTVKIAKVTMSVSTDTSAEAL
- method-notes: rCB1 competition-equilibrium binding with [3H]CP-55,940, rat brain membranes
- Set-up: Frozen rat brains (CB1 source) are obtained from Pel-Freeze Biologicals; tissue Pel-Freeze Biologicals (Rogers, AK); host or cells: rat brain membranes
- protocol-conditions: Table 9, Formula (Ie); read-out: rCB1 (Ki)
- Description: Frozen rat brains (CB1 source) are obtained from Pel-Freeze Biologicals (Rogers, AK) and stored at −80° C. until use. Membranes are prepared according to the method described by Dodd et al. and used in our laboratory as reported. All the cannabinoids discussed in this invention are tested for their ability to bind to CB 1 and CB2 receptors using membranes from rat brain or HEK293 cells expressing either mCB2 or hCB2, respectively via competition-equilibrium binding using [^3H]CP-55,940. […]
measurement-type: Ki (nM)
Entry rule: numbers only, all in nM.

Ask | Annotate the compound CC(C)(C(=O)OCCCN1CCOCC1)c1cc(O)c2c(c1)OC(C)(C)[C@@H]1CCC(=O)C[C@@H]21 [Compound 34g] with its measured Ki.
Reply | 17

----------
- tested-system: hCB2 (Homo sapiens)
- Construct: expressed in transfected cells; host or cells: HEK293
- method-notes: hCB2 competition-equilibrium binding with [3H]CP-55,940, HEK293 membranes
measurement-type: log10 Ki (log10 of the value in nM)
Heads up, the numbers here are log10 of Ki in nM units.

Some compounds with known log10 Ki results, for comparison:
CCCCCOC(=O)C(C)(C)c1cc(O)c2c(c1)OC(C)(C)[C@@H]1CCC(=O)C[C@@H]21 [Compound 34c]
1.06
COC(=O)CCC(C)(C)c1cc(O)c2c(c1)OC(C)(C)[C@@H]1CCC(=O)C[C@@H]21
2.75
CC(C)(C(=O)OCCCI)c1cc(O)c2c(c1)OC(C)(C)[C@@H]1CCC(=O)C[C@@H]21
0.72
CCOC(=O)C(C)(C)c1cc(O)c2c(c1)OC(C)(C)[C@@H]1CCC(=O)C[C@@H]21 [Compound 34a]
1.83
CCCOC(=O)CC(C)(C)c1cc(O)c2c(c1)OC(C)(C)[C@@H]1CCC(=O)C[C@@H]21
1.95

Ask | Determine from records and report log10 Ki for `CC(C)(C(=O)OCCCC#N)c1cc(O)c2c(c1)OC(C)(C)[C@@H]1CC=C(CO)C[C@@H]21`
Reply | 0.00

Ask | For the compound `CC(C)(C(=O)OCCCCN=C=S)c1cc(O)c2c(c1)OC(C)(C)[C@@H]1CCC(=O)C[C@@H]21` , give its measured log10 Ki value.
Reply | 0.72

----------
- tested-system: UniProtKB P20272
- method-notes: rCB1 competition-equilibrium binding with [3H]CP-55,940, rat brain membranes
- Parameters: Frozen rat brains (CB1 source) are obtained from Pel-Freeze Biologicals; tissue Pel-Freeze Biologicals (Rogers, AK); host or cells: rat brain membranes
measurement-type: pKi
Scale: negative log10 of molar concentration, which is what pKi denotes.

CCCCCOC(=O)C(C)(C)c1cc(O)c2c(c1)OC(C)(C)[C@@H]1CCC(=O)C[C@@H]21 [Compound 34c]
9.40
CCCCCCOC(=O)C(C)(C)c1cc(O)c2c(c1)OC(C)(C)[C@@H]1CCC(=O)C[C@@H]21 [Compound 34d]
8.23
CC(C)(C(=O)OCCCCO[N+](=O)[O-])c1cc(O)c2c(c1)OC(C)(C)[C@@H]1CCC(=O)C[C@@H]21
9.70
CC(C)(C(=O)OCCCCBr)c1cc(O)c2c(c1)OC(C)(C)[C@@H]1CCC(=O)C[C@@H]21
11.70
CC(C)(C(=O)OCCCCN=C=S)c1cc(O)c2c(c1)OC(C)(C)[C@@H]1CCC(=O)C[C@@H]21
8.31
CCC[C@@H](C)OC(=O)C(C)(C)c1cc(O)c2c(c1)OC(C)(C)[C@@H]1CCC(=O)C[C@@H]21 [Compound 34f]
8.40

Ask | Report pKi, nothing else, for this compound: `CC(C)(C(=O)OCCCC#N)c1cc(O)c2c(c1)OC(C)(C)[C@@H]1CCC(=O)C[C@@H]21`
Reply | 9.15

Ask | Specify pKi for `CC(C)(C(=O)OCCCI)c1cc(O)c2c(c1)OC(C)(C)[C@@H]1CCC(=O)C[C@@H]21` and stop.
Reply | 10.00

----------
- tested-system: mCB2 (Mus musculus, UniProt P47936)
- Construct: expressed in transfected cells; host or cells: HEK293
- Sequence (P47936 whole entry): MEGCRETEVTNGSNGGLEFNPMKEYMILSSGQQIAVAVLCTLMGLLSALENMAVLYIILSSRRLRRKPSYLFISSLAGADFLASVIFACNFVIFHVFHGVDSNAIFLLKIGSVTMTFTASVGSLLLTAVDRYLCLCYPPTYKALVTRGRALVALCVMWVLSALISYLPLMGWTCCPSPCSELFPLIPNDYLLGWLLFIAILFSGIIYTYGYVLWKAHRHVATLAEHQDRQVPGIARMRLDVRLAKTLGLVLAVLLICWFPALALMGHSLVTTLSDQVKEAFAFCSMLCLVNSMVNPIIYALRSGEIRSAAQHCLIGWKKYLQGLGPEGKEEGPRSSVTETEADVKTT
- method-notes: mCB2 competition-equilibrium binding with [3H]CP-55,940, HEK293 membranes
- Method: HEK293 cells expressing hCB1 or hCB2 or mCB2 receptor are used for membrane preparations according to Abadji et al. The resulting pellet is resuspended in 10 mM Tris-chloride, pH 7.4, with 5 mM MgCl2 and 2 mM EDTA (TME), rapidly frozen in liquid nitrogen and stored at −80° C. for no longer than two months. Protein content is assayed by using the Bio-Rad protein assay according to the manufacturer's protocol. […]
measurement-type: Ki
// unit must come after the numeric part

Previously resolved entries follow.
CC(C)(C(=O)OCCCN=[N+]=[N-])c1cc(O)c2c(c1)OC(C)(C)[C@@H]1CCC(=O)C[C@@H]21
4 nM
CCC[C@H](C)OC(=O)C(C)(C)c1cc(O)c2c(c1)OC(C)(C)[C@@H]1CCC(=O)C[C@@H]21 [Compound 34e]
54 nM
COC(=O)CCC(C)(C)c1cc(O)c2c(c1)OC(C)(C)[C@@H]1CCC(=O)C[C@@H]21
540 nM

Turning now to a further compound:
Ask | Please report Ki for the following compound: CCCCSC(=O)C(C)(C)c1cc(O)c2c(c1)OC(C)(C)[C@@H]1CCC(=O)C[C@@H]21 [Compound 34h]
Reply | 5 nM

----------
- tested-system: hCB2 (Homo sapiens, UniProt P34972)
- Construct: expressed in transfected cells; host or cells: HEK293
- Sequence (P34972 whole entry): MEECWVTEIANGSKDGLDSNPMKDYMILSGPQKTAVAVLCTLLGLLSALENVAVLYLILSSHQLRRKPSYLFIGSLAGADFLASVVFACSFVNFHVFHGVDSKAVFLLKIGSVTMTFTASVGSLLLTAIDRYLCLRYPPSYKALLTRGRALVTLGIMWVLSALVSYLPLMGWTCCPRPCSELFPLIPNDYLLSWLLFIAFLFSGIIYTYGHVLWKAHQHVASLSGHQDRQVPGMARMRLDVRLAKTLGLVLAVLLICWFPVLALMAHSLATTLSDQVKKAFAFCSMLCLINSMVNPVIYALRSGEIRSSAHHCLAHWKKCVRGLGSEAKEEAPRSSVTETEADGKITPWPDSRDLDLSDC
- method-notes: cAMP assay, hCB2
- Type: cell-based
- protocol-conditions: cAMP assay
So basically, if Emax comes in under 80% it's Satisfied, and if it's 80% or more it's Not satisfied.

Worked examples follow.
CC(C)(C(=O)OCCCN=[N+]=[N-])c1cc(O)c2c(c1)OC(C)(C)[C@@H]1CCC(=O)C[C@@H]21
Not satisfied
CCCCCOC(=O)C(C)(C)c1cc(O)c2c(c1)OC(C)(C)[C@@H]1CCC(=O)C[C@@H]21 [Compound 34c]
Satisfied
CCCCSC(=O)C(C)(C)c1cc(O)c2c(c1)OC(C)(C)[C@@H]1CCC(=O)C[C@@H]21 [Compound 34h]
Satisfied

We next turn to a different compound, shown below.
Ask | Dear colleague, could you confirm whether Emax of `CC(C)(C(=O)OCCCC#N)c1cc(O)c2c(c1)OC(C)(C)[C@@H]1CCC(=O)C[C@@H]21` falls below 80%? Thanks.
Reply | Satisfied

----------
- tested-system: rCB1 (Rattus norvegicus)
- method-notes: cAMP assay, rCB1
- Type: cell-based
- protocol-conditions: cAMP assay
We begin with a simple list: items and their reported Emax.
Enter your answer as a number in %; do not include the unit.

Please review the following examples before continuing.
CCC[C@@H](C)OC(=O)C(C)(C)c1cc(O)c2c(c1)OC(C)(C)[C@@H]1CCC(=O)C[C@@H]21 [Compound 34f]
71
CCCOC(=O)CC(C)(C)c1cc(O)c2c(c1)OC(C)(C)[C@@H]1CCC(=O)C[C@@H]21
90
CCCCOC(=O)C(C)(C)c1cc(O)c2c(c1)OC(C)(C)C1CCC(=O)CC21 (stereo not shown)
83

# context switch: different molecule, same Emax
Ask | // Input: `CC(C)(C(=O)OCCCC#N)c1cc(O)c2c(c1)OC(C)(C)[C@@H]1CCC(=O)C[C@@H]21` . Output its Emax only.
Reply | 87
